# pest or weed control at 140 g/ha per entry
test system: Key Broadleaf Weed and Crop Species; assay: Post-emergent Test II herbicidal activity (Table 15); format: in vivo; conditions: Brassica napus, post-emergence, 336 h, oilseed rape, canola (Brassica napus), 140 g ai/ha, 14 d, read-out: Visual Growth Reduction (%) 14 Days After Application, BRSNN

// solved cases for pest or weed control at 140 g/ha follow
| COMPOUND | pest or weed control at 140 g/ha |
| --- | --- |
| COc1c(N)nc(-c2ccc3cc[nH]c3c2F)nc1C(=O)O [Compound 1.35] | 95 to 100% |
| COc1c(C(=O)O)nc(-c2ccc3cc[nH]c3c2F)c(F)c1N [Compound 1.17] | 95 to 100% |

Exercise: // lookup pest or weed control at 140 g/ha for COC(=O)c1nc(-c2cc3ccoc3cc2F)nc(N)c1OC [Compound 2.05]
Solution: 0 to 29%

Exercise: // lookup pest or weed control at 140 g/ha for COC(=O)c1nc(-c2ccc3c(cnn3C)c2)c(F)c(N)c1Cl [Compound 4.03]
Solution: 0 to 29%

Exercise: // lookup pest or weed control at 140 g/ha for Nc1c(F)c(-c2cccc3ccsc23)nc(C(=O)O)c1Cl [Compound 3.25]
Solution: 75 to 84%

Exercise: // lookup pest or weed control at 140 g/ha for COC(=O)c1nc(-c2ccc(Cl)c3ccoc23)c(F)c(N)c1Cl [Compound 2.24]
Solution: 75 to 84%

Exercise: // lookup pest or weed control at 140 g/ha for COC(=O)c1nc(-c2ccc(Cl)c3ccoc23)nc(N)c1OC [Compound 2.26]
Solution: 60 to 74%

---

# pest or weed control at 35 g/ha per entry
system: Key Broadleaf Weed and Crop Species; assay: Post-emergent Test II herbicidal activity (Table 15); type: in vivo; details: Helianthus annuus, post-emergence, 336 h, sunflower (Helianthus annuus), 35 g ai/ha, 14 d, read-out: Visual Growth Reduction (%) 14 Days After Application, HELAN

// solved cases for pest or weed control at 35 g/ha follow
| SMILES_REPRESENTATION | VALUE |
| --- | --- |
| COc1c(N)nc(-c2cc3[nH]ccc3cc2F)nc1C(=O)O | 0 to 29% |
| COC(=O)c1nc(-c2ccc3cc[nH]c3c2)nc(N)c1Cl | 0 to 29% |
| Nc1c(F)c(-c2ccc(Cl)c3occc23)nc(C(=O)O)c1Cl | 75 to 84% |

Please find the next compound below.
Exercise: // lookup pest or weed control at 35 g/ha for `COC(=O)c1nc(-c2ccc3sccc3c2)cc(N)c1Cl`
Solution: 0 to 29%

---

# melting point per entry

// solved cases for melting point follow
| COMPOUND | melting point |
| --- | --- |
| COC(=O)c1nc(-c2cc3sccc3cc2F)c(F)c(N)c1Cl [Compound 3.14] | 112 °C |
| COC(=O)c1nc(-c2cccc3ccsc23)c(F)c(N)c1Cl [Compound 3.24] | 121 to 123 °C |
| Cn1ccc2cc(-c3nc(C(=O)O)c(Cl)c(N)c3F)ccc21 [Compound 1.01] | 166 to 168 °C |

Exercise: // lookup melting point for COC(=O)c1nc(-c2cccc3cn[nH]c23)c(F)c(N)c1Cl [Compound 4.13]
Solution: 207 to 210 °C

Exercise: // lookup melting point for COC(=O)c1nc(-c2ccc(Cl)c3cc[nH]c23)cc(N)c1Cl [Compound 1.49]
Solution: 186 to 188 °C

Exercise: // lookup melting point for COC(=O)c1nc(-c2ccc3ncn(C)c3c2)c(F)c(N)c1Cl [Compound 7.02]
Solution: 218 to 220 °C

Exercise: // lookup melting point for COC(=O)c1nc(-c2ccc3c(cnn3C)c2)c(F)c(N)c1Cl [Compound 4.03]
Solution: 156 to 159 °C

Exercise: // lookup melting point for COC(=O)c1nc(-c2cc3occc3cc2F)c(F)c(N)c1Cl [Compound 2.10]
Solution: 109 °C

Exercise: // lookup melting point for COc1c(N)nc(-c2ccc3cc[nH]c3c2)nc1C(=O)O [Compound 1.33]
Solution: 154 to 157 °C

Exercise: // lookup melting point for COC(=O)c1nc(-c2ccc(Cl)c3occc23)cc(N)c1Cl [Compound 2.19]
Solution: 158 to 159 °C

Exercise: // lookup melting point for Nc1c(Cl)c(C(=O)O)nc(-c2ccc3sccc3c2)c1Cl [Compound 3.02]
Solution: 157 to 159 °C

Exercise: // lookup melting point for COC(=O)c1nc(-c2ccc(Cl)c3ccoc23)cc(N)c1Cl [Compound 2.25]
Solution: 169 °C

Exercise: // lookup melting point for COC(=O)c1nc(-c2ccc3cc[nH]c3c2)nc(N)c1OC [Compound 1.32]
Solution: 190 to 191 °C

Exercise: // lookup melting point for COC(=O)c1nc(-c2ccc(Cl)c3occc23)c(F)c(N)c1Cl [Compound 2.16]
Solution: 184 to 186 °C

---

tested on: Key Broadleaf Weed and Crop Species; assay: Post-emergent Test II herbicidal activity (Table 15); format: in vivo; settings: Chenopodium album, post-emergence, 336 h, lambsquarters (Chenopodium album), 140 g ai/ha, 14 d, read-out: Visual Growth Reduction (%) 14 Days After Application, CHEAL
# pest or weed control at 140 g/ha per entry

// solved cases for pest or weed control at 140 g/ha follow
| SMILES_REPRESENTATION | TARGET | pest or weed control at 140 g/ha |
| --- | --- | --- |
| Nc1c(F)c(-c2cccc3ccsc23)nc(C(=O)O)c1Cl | Key Broadleaf Weed and Crop Species | 95 to 100% |
| COC(=O)c1nc(-c2ccc3c(ccn3C)c2)c(F)c(N)c1Cl | Key Broadleaf Weed and Crop Species | 95 to 100% |
| Nc1cc(-c2ccc3cc[nH]c3c2)nc(C(=O)O)c1Cl | Key Broadleaf Weed and Crop Species | 0 to 29% |

Please find the next compound below.
Exercise: // lookup pest or weed control at 140 g/ha for `COC(=O)c1nc(-c2ccc(Cl)c3ccoc23)cc(N)c1Cl`
Solution: 95 to 100%

---

system: Key Broadleaf Weed and Crop Species; assay: Post-emergent Test II herbicidal activity (Table 15); type: in vivo; details: Amaranthus retroflexus, post-emergence, 336 h, redroot pigweed (Amaranthus retroflexus), 35 g ai/ha, 14 d, read-out: Visual Growth Reduction (%) 14 Days After Application, AMARE
ATTRIBUTE_MEASURED: pest or weed control at 35 g/ha

// solved cases for pest or weed control at 35 g/ha follow
| SMILES_REPRESENTATION | pest or weed control at 35 g/ha |
| --- | --- |
| COC(=O)c1nc(-c2ccc3c(cnn3C)c2)c(F)c(N)c1Cl | 0 to 29% |
| Nc1c(F)c(-c2ccc3scnc3c2)nc(C(=O)O)c1Cl | 95 to 100% |
| Nc1c(F)c(-c2ccc3cc[nH]c3c2F)nc(C(=O)O)c1Cl | 95 to 100% |
| COC(=O)c1nc(-c2ccc3cc[nH]c3c2F)nc(N)c1Cl | 60 to 74% |

Exercise: // lookup pest or weed control at 35 g/ha for `COC(=O)c1nc(-c2cccc3occc23)c(F)c(N)c1Cl`
Solution: 95 to 100%

---

test system: Key Broadleaf Weed and Crop Species; assay: Post-emergent Test II herbicidal activity (Table 15); format: in vivo; settings: Amaranthus retroflexus, post-emergence, 336 h, redroot pigweed (Amaranthus retroflexus), 35 g ai/ha, 14 d, read-out: Visual Growth Reduction (%) 14 Days After Application, AMARE
ATTRIBUTE_MEASURED: pest or weed control at 35 g/ha

// solved cases for pest or weed control at 35 g/ha follow
| SMILES_REPRESENTATION | pest or weed control at 35 g/ha |
| --- | --- |
| COC(=O)c1nc(-c2ccc3ccoc3c2F)nc(N)c1OC | 60 to 74% |
| COC(=O)c1nc(-c2ccc3sccc3c2)c(F)c(N)c1Cl | 95 to 100% |

Exercise: // lookup pest or weed control at 35 g/ha for `COC(=O)c1nc(-c2cc3sccc3cc2F)cc(N)c1Cl`
Solution: 75 to 84%

Exercise: // lookup pest or weed control at 35 g/ha for `COC(=O)c1nc(-c2ccc3ocnc3c2)c(F)c(N)c1Cl`
Solution: 75 to 84%

Exercise: // lookup pest or weed control at 35 g/ha for `COc1c(N)nc(-c2ccc3cc[nH]c3c2)nc1C(=O)O`
Solution: 60 to 74%

Exercise: // lookup pest or weed control at 35 g/ha for `COC(=O)c1nc(-c2ccc3ncn(C)c3c2)c(F)c(N)c1Cl`
Solution: 0 to 29%

---

system: Key Grass and Sedge Weeds as well as Grass Crops; test: Post-emergent Test II herbicidal activity (Table 16); assay type: in vivo; settings: Zea mays, post-emergence, 336 h, maize, corn (Zea mays), 70 g ai/ha, 14 d, read-out: Visual Growth Reduction (%) 14 Days After Application, ZEAMX
ATTRIBUTE_MEASURED: pest or weed control at 70 g/ha

// solved cases for pest or weed control at 70 g/ha follow
| SMILES_REPRESENTATION | TARGET | pest or weed control at 70 g/ha |
| --- | --- | --- |
| COC(=O)c1nc(-c2ccc3occc3c2)nc(N)c1OC | Key Grass and Sedge Weeds as well as Grass Crops | 0 to 29% |
| COC(=O)c1nc(-c2ccc3sccc3c2)c(F)c(N)c1Cl | Key Grass and Sedge Weeds as well as Grass Crops | 95 to 100% |
| COC(=O)c1nc(-c2ccc3cc[nH]c3c2)cc(N)c1Cl | Key Grass and Sedge Weeds as well as Grass Crops | 0 to 29% |
| COC(=O)c1nc(-c2ccc3[nH]ccc3c2)c(F)c(N)c1Cl | Key Grass and Sedge Weeds as well as Grass Crops | 0 to 29% |

Exercise: // lookup pest or weed control at 70 g/ha for `COC(=O)c1nc(-c2ccc3c(ccn3C)c2)c(F)c(N)c1Cl`
Solution: 0 to 29%

Exercise: // lookup pest or weed control at 70 g/ha for `COC(=O)c1nc(-c2cc3ccoc3cc2F)nc(N)c1OC`
Solution: 0 to 29%

Exercise: // lookup pest or weed control at 70 g/ha for `COc1c(N)nc(-c2ccc(Cl)c3occc23)nc1C(=O)O`
Solution: 0 to 29%

Exercise: // lookup pest or weed control at 70 g/ha for `Nc1cc(-c2ccc3cc[nH]c3c2F)nc(C(=O)O)c1Cl`
Solution: 0 to 29%

Exercise: // lookup pest or weed control at 70 g/ha for `COc1c(N)nc(-c2ccc3cc[nH]c3c2F)nc1C(=O)O`
Solution: 0 to 29%
